Readings of MIC for the listed compounds
Test system: clinical MDR Staphylococcus epidermidis isolates
Assay: MIC, broth microdilution, 81 clinical MDR strains
Format: cell-based
Conditions: Staphylococcus epidermidis, clinical strain 16 (Table S2); read-out: MIC
Description: 2 Biological assay protocols Microbiological tests were carried out under aseptic conditions in a laminar chamber of the 2nd […] (BioTectum 1.2, Alchem Poland). […] 2.2 Effect of evaluated compounds on planktonic cells […] Table S1) and 81 clinical MDR S. epidermidis (Table S2) to the tested compounds was assessed by determining the MIC value (Minimal Inhibitory Concentration) by microdilution in a liquid medium in 96-well flat-bottom cell culture plates (Nest Biotechnology Scientific, USA). […]
Hi! Could you send only the number? It should be in µg/mL, unit omitted.

Reference set (2 entries):
INSERT INTO assay_data (compound, value_units, observed) VALUES
  ('O=C(Nc1cccc(Cl)c1)NC1CCN(CCC(Oc2ccc(C(F)(F)F)cc2)c2cccs2)CC1 (stereo not drawn) [Compound 25]', 'µg/mL', 3.12),
  ('O=S(=O)(NC1CCN(CCC(Oc2ccc(C(F)(F)F)cc2)c2cccs2)CC1)c1cccc(Br)c1 (stereo not drawn) [Compound 18]', 'µg/mL', 50);

Requested read-out: MIC. Entry: CC(=O)NC[C@H]1CN(c2ccc(N3CCOCC3)c(F)c2)C(=O)O1 [linezolid, reference compound] 1.6

Please report the recorded MIC for O=S(=O)(NC1CCN(CCC(Oc2ccc(C(F)(F)F)cc2)c2cccs2)CC1)c1cccc(Cl)c1 (stereo not drawn) [Compound 14] . 1.6

What MIC value was documented for this compound, O=S(=O)(NC1CCN(CCC(Oc2ccc(C(F)(F)F)cc2)c2cccs2)CC1)c1cccc(C(F)(F)F)c1 (stereo not drawn) [Compound 21] ? 50

// lookup MIC for O=S(=O)(NC1CCN(CCC(Oc2ccc(C(F)(F)F)cc2)c2ccccc2)CC1)c1cccc(Cl)c1 (stereo not drawn) [Compound 12] 3.12

====

system: clinical MDR Staphylococcus epidermidis isolates; assay: MIC, broth microdilution, 81 clinical MDR strains; type: cell-based; details: Staphylococcus epidermidis, clinical strain 49 (Table S2); read-out: MIC
endpoint.label: MIC

Here are 3 molecules together with their reported answers.
INSERT INTO assay_data (molecule, target_or_system, observed) VALUES
  ('O=S(=O)(NC1CCN(CCC(Oc2ccc(C(F)(F)F)cc2)c2cccs2)CC1)c1cccc(C(F)(F)F)c1 (stereo not drawn) [Compound 21]', 'clinical MDR Staphylococcus epidermidis isolates', '50 µg/mL'),
  ('O=C(Nc1cccc(Cl)c1)NC1CCN(CCC(Oc2ccc(C(F)(F)F)cc2)c2cccs2)CC1 (stereo not drawn) [Compound 25]', 'clinical MDR Staphylococcus epidermidis isolates', '0.1 µg/mL'),
  ('O=S(=O)(NC1CCN(CCC(Oc2ccc(C(F)(F)F)cc2)c2cccs2)CC1)c1cccc(Br)c1 (stereo not drawn) [Compound 18]', 'clinical MDR Staphylococcus epidermidis isolates', '50 µg/mL');

Reported MIC for O=S(=O)(NC1CCN(CCC(Oc2ccc(C(F)(F)F)cc2)c2cccs2)CC1)c1cccc(Cl)c1 (stereo not drawn) [Compound 14] : what is it? 0.1 µg/mL

Could you tell me which MIC is on file for CC(=O)NC[C@H]1CN(c2ccc(N3CCOCC3)c(F)c2)C(=O)O1 [linezolid, reference compound] ? 0.2 µg/mL

Fill in: MIC of O=S(=O)(NC1CCN(CCC(Oc2ccc(C(F)(F)F)cc2)c2ccccc2)CC1)c1cccc(Cl)c1 (stereo not drawn) [Compound 12] is ___ 0.1 µg/mL
